Molecular target: T1, control peptide A2E-10/HLA-A*02:01 complex on T2 cells (member of the P19 mixture) (human)
T1 construct: Loaded on T2 cells as part of the mixture of 19 control peptides
Experiment: flow cytometry, phage on T2 cells
Experimental: Individual phage clones from enriched phage display panning pools against PSA146/HLA-A*02:01 complex were incubated in the coated plates. Binding of the phage clones was detected by HRP-conjugated anti-M13 antibodies and developed using HRP substrate. The absorbance was read at 450 nm. […] Then, unique antibody clones were identified through DNA sequencing of ELISA-positive clones. […]
Measurement kind: binding result

INSERT INTO results (binder, endpoint_result) VALUES
  ('PSA146/HLA-A*02:01-specific scFv phage clone #17 (scFv, V domains shown) VH: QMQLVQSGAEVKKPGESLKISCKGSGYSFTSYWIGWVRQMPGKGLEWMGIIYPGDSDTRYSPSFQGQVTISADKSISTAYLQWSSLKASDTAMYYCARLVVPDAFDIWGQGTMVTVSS VL: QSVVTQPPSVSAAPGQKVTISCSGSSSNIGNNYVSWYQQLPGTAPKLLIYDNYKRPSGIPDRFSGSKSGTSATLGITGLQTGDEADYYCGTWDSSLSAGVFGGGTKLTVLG', 'no binding'),
  ('PSA146/HLA-A*02:01-specific scFv phage clone #14 (scFv, V domains shown) VH: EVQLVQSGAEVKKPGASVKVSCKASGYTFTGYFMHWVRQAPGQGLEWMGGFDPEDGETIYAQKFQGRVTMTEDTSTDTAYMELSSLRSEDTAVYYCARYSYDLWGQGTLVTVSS VL: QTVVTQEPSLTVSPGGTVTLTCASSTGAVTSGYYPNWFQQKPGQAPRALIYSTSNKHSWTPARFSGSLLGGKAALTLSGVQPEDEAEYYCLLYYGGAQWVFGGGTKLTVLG', 'no binding');
